# Assay info: Plasma pharmacokinetic study in rats after oral and intravenous administration of SZ–A or purified DNJ
# Format: in vivo, rat
# Assay setup: Sprague-Dawley, iv; rat plasma, purified DNJ 1.5 mg/kg i.v., n = 5; read-out: Vd
Readout name: Vd

[
  {
    "Compound": "OC[C@H]1NC[C@H](O)[C@@H](O)[C@@H]1O [DNJ, 1-deoxynojirimycin]",
    "Readout name": "Vd",
    "Measurement": "0.486 L/kg"
  }
]

====

Overview of recorded AUC(0-inf) for various molecules
# Assay info: Plasma pharmacokinetic study in rats after oral and intravenous administration of SZ–A or purified DNJ
# Format: in vivo, rat
# Assay setup: Sprague-Dawley, po; rat plasma, SZ–A 40 mg/kg p.o., n = 5
Readout name: AUC(0-inf) (ng·h/mL)

[
  {
    "Smiles structure": "OC[C@H]1NC[C@@H](O)[C@@H]1O",
    "Readout name": "AUC(0-inf)",
    "Value units": "ng·h/mL",
    "Measurement": 978
  },
  {
    "Smiles structure": "OC[C@H]1NC[C@H](O)[C@@H](O)[C@@H]1O",
    "Readout name": "AUC(0-inf)",
    "Value units": "ng·h/mL",
    "Measurement": 10200
  },
  {
    "Smiles structure": "OC[C@H]1NCC[C@@H](O)[C@@H]1O",
    "Readout name": "AUC(0-inf)",
    "Value units": "ng·h/mL",
    "Measurement": 2170
  }
]

====

In this section, each of the molecules is paired with its reported bioavailability.
# Assay info: Plasma pharmacokinetic study in rats after oral and intravenous administration of SZ–A or purified DNJ
# Type: in vivo, rat
# Assay setup: Sprague-Dawley, plasma, po; rat, SZ–A 40 mg/kg p.o. vs SZ–A 4 mg/kg i.v.; read-out: F (oral absolute bioavailability)
# Procedure: The oral dosing solutions used for all animal studies were prepared by dissolving in water. Thirty rats weighed 250–270 g after acclimation were randomly divided into six groups of five animals each. For oral administration, rats were treated with SZ–A (40, 200, 1000 mg/kg) or purified DNJ (15 mg/kg) dissolve in water. […] F was calculated according to the formula: F (%) = (AUC oral/AUC i.v.) × (dose i.v./dose oral) × 100. […]
Readout name: bioavailability

[
  {
    "Molecule": "OC[C@H]1NC[C@H](O)[C@@H](O)[C@@H]1O [DNJ, 1-deoxynojirimycin]",
    "Measurement": "72.4%"
  },
  {
    "Molecule": "OC[C@H]1NC[C@@H](O)[C@@H]1O [DAB, 1,4-dideoxy-1,4-imino-D-arabinitol]",
    "Measurement": "78.2%"
  },
  {
    "Molecule": "OC[C@H]1NCC[C@@H](O)[C@@H]1O [FGM, fagomine]",
    "Measurement": "77.5%"
  }
]

====

# Assay info: Plasma pharmacokinetic study in rats after oral and intravenous administration of SZ–A or purified DNJ
# Assay type: in vivo, rat
# Assay setup: Sprague-Dawley, po; rat plasma, SZ–A 1000 mg/kg p.o., n = 5
Recorded Cmax by entry
Readout name: Cmax (ng/mL)

[
  {
    "Compound": "OC[C@H]1NC[C@H](O)[C@@H](O)[C@@H]1O [DNJ, 1-deoxynojirimycin]",
    "Measurement": 25100
  },
  {
    "Compound": "OC[C@H]1NCC[C@@H](O)[C@@H]1O [FGM, fagomine]",
    "Measurement": 4390
  }
]

====

# Assay info: Plasma pharmacokinetic study in rats after oral and intravenous administration of SZ–A or purified DNJ
# Type: in vivo, rat
# Assay setup: Sprague-Dawley, po; rat plasma, SZ–A 1000 mg/kg p.o., n = 5

[
  {
    "Smiles structure": "OC[C@H]1NC[C@@H](O)[C@@H]1O",
    "Value units": "min",
    "Tmax": 28.2
  },
  {
    "Smiles structure": "OC[C@H]1NC[C@H](O)[C@@H](O)[C@@H]1O",
    "Value units": "min",
    "Tmax": 25.8
  },
  {
    "Smiles structure": "OC[C@H]1NCC[C@@H](O)[C@@H]1O",
    "Value units": "min",
    "Tmax": 78
  }
]

====

The following compounds are shown together with reported AUC(0-t) values.
# Assay info: Plasma pharmacokinetic study in rats after oral and intravenous administration of SZ–A or purified DNJ
# Format: in vivo, rat
# Assay setup: Sprague-Dawley, po; rat plasma, SZ–A 40 mg/kg p.o., n = 5
Readout name: AUC(0-t) (ng·h/mL)

[
  {
    "Smiles structure": "OC[C@H]1NCC[C@@H](O)[C@@H]1O",
    "Measurement": 2160
  },
  {
    "Smiles structure": "OC[C@H]1NC[C@H](O)[C@@H](O)[C@@H]1O",
    "Measurement": 10100
  },
  {
    "Smiles structure": "OC[C@H]1NC[C@@H](O)[C@@H]1O",
    "Measurement": 969
  }
]

====

# Assay info: Plasma pharmacokinetic study in rats after oral and intravenous administration of SZ–A or purified DNJ
# Type: in vivo, rat
# Assay setup: Sprague-Dawley, po; rat plasma, SZ–A 200 mg/kg p.o., n = 5; read-out: MRT0–∞
Quick reference: MRT inf of the listed items.
Readout name: MRT inf (h)

[
  {
    "Smiles structure": "OC[C@H]1NC[C@H](O)[C@@H](O)[C@@H]1O",
    "Value units": "h",
    "Measurement": 2.71
  },
  {
    "Smiles structure": "OC[C@H]1NCC[C@@H](O)[C@@H]1O",
    "Value units": "h",
    "Measurement": 2.78
  },
  {
    "Smiles structure": "OC[C@H]1NC[C@@H](O)[C@@H]1O",
    "Value units": "h",
    "Measurement": 2.09
  }
]

====

# Assay info: Plasma pharmacokinetic study in rats after oral and intravenous administration of SZ–A or purified DNJ
# Assay type: in vivo, rat
# Assay setup: Sprague-Dawley, iv; rat plasma, SZ–A 4 mg/kg i.v., n = 5; read-out: Vd
Below is a list of entries, each paired with its recorded Vd value.

[
  {
    "Smiles structure": "OC[C@H]1NC[C@@H](O)[C@@H]1O",
    "Vd (L/kg)": 0.401
  },
  {
    "Smiles structure": "OC[C@H]1NCC[C@@H](O)[C@@H]1O",
    "Vd (L/kg)": 0.308
  },
  {
    "Smiles structure": "OC[C@H]1NC[C@H](O)[C@@H](O)[C@@H]1O",
    "Vd (L/kg)": 0.453
  }
]

====

# Assay info: Plasma pharmacokinetic study in rats after oral and intravenous administration of SZ–A or purified DNJ
# Type: in vivo, rat
# Assay setup: Sprague-Dawley, iv; rat plasma, purified DNJ 1.5 mg/kg i.v., n = 5

[
  {
    "Compound": "OC[C@H]1NC[C@H](O)[C@@H](O)[C@@H]1O [DNJ, 1-deoxynojirimycin]",
    "half-life (min)": 15
  }
]

====

# Assay info: Plasma pharmacokinetic study in rats after oral and intravenous administration of SZ–A or purified DNJ
# Type: in vivo, rat
# Assay setup: Sprague-Dawley, po; rat plasma, purified DNJ 15 mg/kg p.o., n = 5; read-out: MRT0–t

[
  {
    "Smiles structure": "OC[C@H]1NC[C@H](O)[C@@H](O)[C@@H]1O",
    "MRT last, h": 1.77
  }
]

====

# Assay info: Plasma pharmacokinetic study in rats after oral and intravenous administration of SZ–A or purified DNJ
# Assay type: in vivo, rat
# Assay setup: Sprague-Dawley, iv; rat plasma, SZ–A 4 mg/kg i.v., n = 5

[
  {
    "Smiles structure": "OC[C@H]1NC[C@H](O)[C@@H](O)[C@@H]1O",
    "Value units": "ng·h/mL",
    "AUC(0-t)": 1400
  },
  {
    "Smiles structure": "OC[C@H]1NCC[C@@H](O)[C@@H]1O",
    "Value units": "ng·h/mL",
    "AUC(0-t)": 278
  },
  {
    "Smiles structure": "OC[C@H]1NC[C@@H](O)[C@@H]1O",
    "Value units": "ng·h/mL",
    "AUC(0-t)": 124
  }
]

====

# Assay info: Plasma pharmacokinetic study in rats after oral and intravenous administration of SZ–A or purified DNJ
# Format: in vivo, rat
# Assay setup: Sprague-Dawley, po; rat plasma, SZ–A 1000 mg/kg p.o., n = 5; read-out: MRT0–∞
Readout name: MRT inf

[
  {
    "Smiles structure": "OC[C@H]1NCC[C@@H](O)[C@@H]1O",
    "Measurement": "6.15 h"
  },
  {
    "Smiles structure": "OC[C@H]1NC[C@H](O)[C@@H](O)[C@@H]1O",
    "Measurement": "5.25 h"
  },
  {
    "Smiles structure": "OC[C@H]1NC[C@@H](O)[C@@H]1O",
    "Measurement": "4.66 h"
  }
]
